// provenance: PubChem BioAssay AID1159580

ASSAY_EXPLANATION: chemical genetic growth profiling, strain panel (AID 1159580);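 also: tested at 20 µM; growth read once vehicle control cultures reached saturation at 30 °C; 1 = growth at the plate median or of vehicle wells; lower values mean less growth of the strain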
STUDY_CONDITIONS: S. cerevisiae deletion strains, growth OD, locus YDR150W, strain NUM1, stronger effect = lower value
Screen size: about 5,500 compounds; about 2,000 (36%) were called active. Inconclusive results (about 18%) are left out. The list shows a part of the results.
Known normalized growth of a selection of compounds
ATTRIBUTE_MEASURED: normalized growth

{"columns": ["STRUCTURE", "ATTRIBUTE_MEASURED", "READOUT_NUMBER"],
 "data": [
  ["O=[N+]([O-])c1cc(O)c(O)c([N+](=O)[O-])c1", "normalized growth", 1.01],
  ["O=[N+]([O-])c1ccc2nc(N3CCNCC3)ccc2c1", "normalized growth", 0.994],
  ["O=C(COC(=O)c1ccccc1Nc1cccc(F)c1)c1ccccc1", "normalized growth", 1.01],
  ["O=C(O)c1cccnc1Nc1cccc(C(F)(F)F)c1", "normalized growth", 0.975],
  ["N#Cc1c(N)sc2c1CCCCC2", "normalized growth", 1.02],
  ["CNc1ccccc1C(=O)O", "normalized growth", 0.997],
  ["O=C(O)c1ccccc1Nc1cccc(OCc2ccc3ccccc3n2)c1", "normalized growth", 1]
]}
